What inhibition at 1 µM was measured for each of the following?
- target-or-system: IRAK4 enzyme (Homo sapiens, UniProt Q9NWZ3)
- Sequence (Q9NWZ3 whole entry): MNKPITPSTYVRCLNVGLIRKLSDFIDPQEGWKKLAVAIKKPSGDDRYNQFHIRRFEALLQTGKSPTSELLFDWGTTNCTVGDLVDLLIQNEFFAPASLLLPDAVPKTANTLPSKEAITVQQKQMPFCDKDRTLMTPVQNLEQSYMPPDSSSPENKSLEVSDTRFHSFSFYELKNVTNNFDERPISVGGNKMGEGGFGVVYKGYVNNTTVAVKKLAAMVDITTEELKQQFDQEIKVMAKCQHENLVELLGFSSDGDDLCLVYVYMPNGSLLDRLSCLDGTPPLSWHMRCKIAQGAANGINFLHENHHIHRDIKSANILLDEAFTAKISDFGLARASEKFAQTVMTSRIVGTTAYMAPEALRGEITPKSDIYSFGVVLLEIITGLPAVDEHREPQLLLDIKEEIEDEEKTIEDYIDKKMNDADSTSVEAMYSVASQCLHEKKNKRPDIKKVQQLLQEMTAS
- experiment-notes: IRAK4 enzyme inhibition degree (bead-based kinase assay, peptide substrate BMKC-2, 100 μM ATP)
- Assay type: biochemical
- run-parameters: compound 1 μM
Numbers only, in %.

[[record]]
compound = "Oc1cncc(-c2ccc3[nH]c4ncnc(N[C@H]5CC[C@H](N6CCOCC6)CC5)c4c3c2)c1 [Compound 6aae]"
obs_value = 100

[[record]]
compound = "Cn1cc(-c2ccc3[nH]c4ncnc(N[C@H]5CC[C@H](N6CCOCC6)CC5)c4c3c2)cn1 [Compound 6aaa]"
obs_value = 100

[[record]]
compound = "CCOC(=O)c1ccc2[nH]c3ncnc(Nc4ccc(OC)cc4)c3c2c1 [Compound 5bc]"
obs_value = 9


Any idea what inhibition at 1 µM was measured for Cn1cc(-c2ccc3[nH]c4ncnc(NCCN5CCOCC5)c4c3c2)cn1 [Compound 6ada] ?
53
